Run description: Macro-scale scaffold formation upon exposure to PBS / neutral pH buffer
Type: physicochemical
Assay conditions: upon exposure to PBS (1×) / neutral pH buffer
Description: The tested peptides solutions appearance ranged from peptides giving clear liquid is solutions (e.g. 4, B15, B19, B25, B28, 30) to samples which become opaque in 1 to 7 days after dissolution (e.g. B3, B17, B22, B24, B27, 31) as shown in FIG. 2a (I). […] Nonetheless, keeping constant the observation time, the storage moduli of peptide solutions previously dissolved (the day before) at 3% w/v were measured. […]
The star is where a group is joined. Biotin = O=C1N[C@H]2[C@H](CS[C@H]2CCCCC(=O)*)N1
Measurement type: solid scaffold / hydrogel formation

Substance	Recorded result
Ac-F-GGG-AFASTKT-GIKVAV-CONH2 (Ac-FGGGAFASTKTGIKVAV-NH2) [compound 59]	yielded solid scaffolds
Biot-GGGAFSSTKTGRGD-CONH2 (Biotin-GGGAFSSTKTGRGD-NH2; SMILES C[C@H](NC(=O)CNC(=O)CNC(=O)CNC(=O)CCCC[C@@H]1SC[C@@H]2NC(=O)N[C@@H]21)C(=O)N[C@@H](Cc1ccccc1)C(=O)N[C@@H](CO)C(=O)N[C@@H](CO)C(=O)N[C@H](C(=O)N[C@@H](CCCCN)C(=O)N[C@H](C(=O)NCC(=O)N[C@@H](CCCNC(=N)N)C(=O)NCC(=O)N[C@@H](CC(=O)O)C(N)=O)[C@@H](C)O)[C@@H](C)O) [B19]	yielded solid scaffolds

====

Run description: Macro-scale scaffold formation upon exposure to PBS / neutral pH buffer
Type: physicochemical
Assay conditions: upon exposure to PBS (1×) / neutral pH buffer
Method: The tested peptides solutions appearance ranged from peptides giving clear liquid is solutions (e.g. 4, B15, B19, B25, B28, 30) to samples which become opaque in 1 to 7 days after dissolution (e.g. B3, B17, B22, B24, B27, 31) as shown in FIG. 2a (I). […] Nonetheless, keeping constant the observation time, the storage moduli of peptide solutions previously dissolved (the day before) at 3% w/v were measured. […]
The star is where a group is joined. Biotin = O=C1N[C@H]2[C@H](CS[C@H]2CCCCC(=O)*)N1

Substance	solid scaffold / hydrogel formation
Biot-GGGPFSETKT-CONH2 (Biotin-GGGPFSETKT-NH2; SMILES C[C@@H](O)[C@H](NC(=O)[C@H](CCCCN)NC(=O)[C@@H](NC(=O)[C@H](CCC(=O)O)NC(=O)[C@H](CO)NC(=O)[C@H](Cc1ccccc1)NC(=O)[C@@H]1CCCN1C(=O)CNC(=O)CNC(=O)CNC(=O)CCCC[C@@H]1SC[C@@H]2NC(=O)N[C@@H]21)[C@@H](C)O)C(N)=O) [peptide B17]	yielded solid scaffolds
Biot-GGGGGPFSSTKT-CONH2 (Biotin-GGGGGPFSSTKT-NH2; SMILES C[C@@H](O)[C@H](NC(=O)[C@H](CCCCN)NC(=O)[C@@H](NC(=O)[C@H](CO)NC(=O)[C@H](CO)NC(=O)[C@H](Cc1ccccc1)NC(=O)[C@@H]1CCCN1C(=O)CNC(=O)CNC(=O)CNC(=O)CNC(=O)CNC(=O)CCCC[C@@H]1SC[C@@H]2NC(=O)N[C@@H]21)[C@@H](C)O)C(N)=O) [peptide B25]	yielded solid scaffolds
Biot-GGGPWSSTKT-CONH2 (Biotin-GGGPWSSTKT-NH2; SMILES C[C@@H](O)[C@H](NC(=O)[C@H](CCCCN)NC(=O)[C@@H](NC(=O)[C@H](CO)NC(=O)[C@H](CO)NC(=O)[C@H](Cc1c[nH]c2ccccc12)NC(=O)[C@@H]1CCCN1C(=O)CNC(=O)CNC(=O)CNC(=O)CCCC[C@@H]1SC[C@@H]2NC(=O)N[C@@H]21)[C@@H](C)O)C(N)=O) [B27]	yielded solid scaffolds
